# condition-label: in acetonitrile, 283.15 K
assay-readout: solubility (mole fraction)
Provide a numeric answer; units are not to be included.

Request: Returns the measured solubility (mole fraction) for the input molecule. Input: O=C(O)c1ccccc1Nc1ccccc1
Response: 0.00147

* * *

# condition-label: in isopropanol, 295.65 K
assay-readout: solubility (mole fraction)
Provide a numeric answer; units are not to be included.

Request: Returns the measured solubility (mole fraction) for the input compound. Input: O=C(O)c1ccccc1Nc1ccccc1
Response: 0.0124

* * *

# condition-label: in ethyl acetate, 310.65 K
assay-readout: solubility (mole fraction)
Provide a numeric answer; units are not to be included.

Request: Returns the measured solubility (mole fraction) for the input compound. Input: O=C(O)c1ccccc1Nc1ccccc1
Response: 0.0458

* * *

# condition-label: in n-propanol, 305.65 K
assay-readout: solubility (mole fraction)
Provide a numeric answer; units are not to be included.

Request: Returns the measured solubility (mole fraction) for the input molecule. Input: O=C(O)c1ccccc1Nc1ccccc1
Response: 0.0239

* * *

# condition-label: in isopropanol, 308.15 K
assay-readout: solubility (mole fraction)
Provide a numeric answer; units are not to be included.

Request: Returns the measured solubility (mole fraction) for the input compound. Input: O=C(O)c1ccccc1Nc1ccccc1
Response: 0.0232

* * *

# condition-label: in n-propanol, 288.15 K
assay-readout: solubility (mole fraction)
Provide a numeric answer; units are not to be included.

Request: Returns the measured solubility (mole fraction) for the input compound. Input: O=C(O)c1ccccc1Nc1ccccc1
Response: 0.00975

* * *

# condition-label: in acetone, 318.15 K
assay-readout: solubility (mole fraction)
Provide a numeric answer; units are not to be included.

Request: Returns the measured solubility (mole fraction) for the input molecule. Input: O=C(O)c1ccccc1Nc1ccccc1
Response: 0.063

* * *

# condition-label: in isopropanol, 290.65 K
assay-readout: solubility (mole fraction)
Provide a numeric answer; units are not to be included.

Request: Returns the measured solubility (mole fraction) for the input compound. Input: O=C(O)c1ccccc1Nc1ccccc1
Response: 0.00933

* * *

# condition-label: in ethanol, 313.15 K
assay-readout: solubility (mole fraction)
Provide a numeric answer; units are not to be included.

Request: Returns the measured solubility (mole fraction) for the input molecule. Input: O=C(O)c1ccccc1Nc1ccccc1
Response: 0.0311

* * *

# condition-label: in acetonitrile, 293.15 K
assay-readout: solubility (mole fraction)
Provide a numeric answer; units are not to be included.

Request: Returns the measured solubility (mole fraction) for the input compound. Input: O=C(O)c1ccccc1Nc1ccccc1
Response: 0.00268

* * *

# condition-label: in acetonitrile, 305.65 K
assay-readout: solubility (mole fraction)
Provide a numeric answer; units are not to be included.

Request: Returns the measured solubility (mole fraction) for the input molecule. Input: O=C(O)c1ccccc1Nc1ccccc1
Response: 0.00556

* * *

# condition-label: in ethyl acetate, 298.15 K
assay-readout: solubility (mole fraction)

Request: Returns the measured solubility (mole fraction) for the input molecule. Input: O=C(O)c1ccccc1Nc1ccccc1
Response: 0.0267

* * *

# condition-label: in ethyl acetate, 300.65 K
assay-readout: solubility (mole fraction)
Provide a numeric answer; units are not to be included.

Request: Returns the measured solubility (mole fraction) for the input molecule. Input: O=C(O)c1ccccc1Nc1ccccc1
Response: 0.0301

* * *

# condition-label: in toluene, 295.65 K
assay-readout: solubility (mole fraction)
Provide a numeric answer; units are not to be included.

Request: Returns the measured solubility (mole fraction) for the input compound. Input: O=C(O)c1ccccc1Nc1ccccc1
Response: 0.00502

* * *

# condition-label: in acetonitrile, 288.15 K
assay-readout: solubility (mole fraction)
Provide a numeric answer; units are not to be included.

Request: Returns the measured solubility (mole fraction) for the input compound. Input: O=C(O)c1ccccc1Nc1ccccc1
Response: 0.00197

* * *

# condition-label: in methanol, 298.15 K
assay-readout: solubility (mole fraction)
Provide a numeric answer; units are not to be included.

Request: Returns the measured solubility (mole fraction) for the input molecule. Input: O=C(O)c1ccccc1Nc1ccccc1
Response: 0.00825

* * *

# condition-label: in n-butanol, 295.65 K
assay-readout: solubility (mole fraction)
Provide a numeric answer; units are not to be included.

Request: Returns the measured solubility (mole fraction) for the input compound. Input: O=C(O)c1ccccc1Nc1ccccc1
Response: 0.0167

* * *

# condition-label: in methanol, 310.65 K
assay-readout: solubility (mole fraction)
Provide a numeric answer; units are not to be included.

Request: Returns the measured solubility (mole fraction) for the input compound. Input: O=C(O)c1ccccc1Nc1ccccc1
Response: 0.0145

* * *

# condition-label: in isopropanol, 305.65 K
assay-readout: solubility (mole fraction)
Provide a numeric answer; units are not to be included.

Request: Returns the measured solubility (mole fraction) for the input compound. Input: O=C(O)c1ccccc1Nc1ccccc1
Response: 0.0208

* * *

# condition-label: in ethanol, 318.15 K
assay-readout: solubility (mole fraction)

Request: Returns the measured solubility (mole fraction) for the input compound. Input: O=C(O)c1ccccc1Nc1ccccc1
Response: 0.0374

* * *

# condition-label: in n-propanol, 290.65 K
assay-readout: solubility (mole fraction)
Provide a numeric answer; units are not to be included.

Request: Returns the measured solubility (mole fraction) for the input molecule. Input: O=C(O)c1ccccc1Nc1ccccc1
Response: 0.0114

* * *

# condition-label: in ethyl acetate, 315.65 K
assay-readout: solubility (mole fraction)

Request: Returns the measured solubility (mole fraction) for the input compound. Input: O=C(O)c1ccccc1Nc1ccccc1
Response: 0.0555

* * *

# condition-label: in methanol, 283.15 K
assay-readout: solubility (mole fraction)
Provide a numeric answer; units are not to be included.

Request: Returns the measured solubility (mole fraction) for the input molecule. Input: O=C(O)c1ccccc1Nc1ccccc1
Response: 0.00331

* * *

# condition-label: in acetone, 308.15 K
assay-readout: solubility (mole fraction)
Provide a numeric answer; units are not to be included.

Request: Returns the measured solubility (mole fraction) for the input compound. Input: O=C(O)c1ccccc1Nc1ccccc1
Response: 0.0465

* * *

# condition-label: in acetonitrile, 290.65 K
assay-readout: solubility (mole fraction)
Provide a numeric answer; units are not to be included.

Request: Returns the measured solubility (mole fraction) for the input compound. Input: O=C(O)c1ccccc1Nc1ccccc1
Response: 0.00228

* * *

# condition-label: in n-butanol, 283.15 K
assay-readout: solubility (mole fraction)
Provide a numeric answer; units are not to be included.

Request: Returns the measured solubility (mole fraction) for the input molecule. Input: O=C(O)c1ccccc1Nc1ccccc1
Response: 0.00849

* * *

# condition-label: in acetone, 283.15 K
assay-readout: solubility (mole fraction)
Provide a numeric answer; units are not to be included.

Request: Returns the measured solubility (mole fraction) for the input compound. Input: O=C(O)c1ccccc1Nc1ccccc1
Response: 0.019

* * *

# condition-label: in ethanol, 303.15 K
assay-readout: solubility (mole fraction)

Request: Returns the measured solubility (mole fraction) for the input compound. Input: O=C(O)c1ccccc1Nc1ccccc1
Response: 0.0196

* * *

# condition-label: in acetonitrile, 310.65 K
assay-readout: solubility (mole fraction)
Provide a numeric answer; units are not to be included.

Request: Returns the measured solubility (mole fraction) for the input molecule. Input: O=C(O)c1ccccc1Nc1ccccc1
Response: 0.00695

* * *

# condition-label: in acetonitrile, 318.15 K
assay-readout: solubility (mole fraction)
Provide a numeric answer; units are not to be included.

Request: Returns the measured solubility (mole fraction) for the input compound. Input: O=C(O)c1ccccc1Nc1ccccc1
Response: 0.0102

* * *

# condition-label: in isopropanol, 285.65 K
assay-readout: solubility (mole fraction)
Provide a numeric answer; units are not to be included.

Request: Returns the measured solubility (mole fraction) for the input compound. Input: O=C(O)c1ccccc1Nc1ccccc1
Response: 0.00692

* * *

# condition-label: in toluene, 288.15 K
assay-readout: solubility (mole fraction)
Provide a numeric answer; units are not to be included.

Request: Returns the measured solubility (mole fraction) for the input compound. Input: O=C(O)c1ccccc1Nc1ccccc1
Response: 0.00321

* * *

# condition-label: in toluene, 303.15 K
assay-readout: solubility (mole fraction)
Provide a numeric answer; units are not to be included.

Request: Returns the measured solubility (mole fraction) for the input compound. Input: O=C(O)c1ccccc1Nc1ccccc1
Response: 0.00742

* * *

# condition-label: in isopropanol, 303.15 K
assay-readout: solubility (mole fraction)

Request: Returns the measured solubility (mole fraction) for the input compound. Input: O=C(O)c1ccccc1Nc1ccccc1
Response: 0.0184

* * *

# condition-label: in methanol, 293.15 K
assay-readout: solubility (mole fraction)
Provide a numeric answer; units are not to be included.

Request: Returns the measured solubility (mole fraction) for the input molecule. Input: O=C(O)c1ccccc1Nc1ccccc1
Response: 0.0061

* * *

# condition-label: in acetone, 313.15 K
assay-readout: solubility (mole fraction)
Provide a numeric answer; units are not to be included.

Request: Returns the measured solubility (mole fraction) for the input compound. Input: O=C(O)c1ccccc1Nc1ccccc1
Response: 0.0537

* * *

# condition-label: in ethanol, 310.65 K
assay-readout: solubility (mole fraction)
Provide a numeric answer; units are not to be included.

Request: Returns the measured solubility (mole fraction) for the input compound. Input: O=C(O)c1ccccc1Nc1ccccc1
Response: 0.0276
